This section presents compounds with their documented activation at 1 µM values.
system_tested: human GPR40 (Homo sapiens)
Construct: expressed in transfected cells
test_details: Evaluation of human GPR40 agonist activity with increase in intracellular Ca2+ concentration as an index (FLIPR)
Type: cell-based
condition_summary: test compound 1 μM; CHO(dhfr−) cells stably expressing human GPR40; 100% = 10 μM compound of Example 153, 0% = DMSO
attribute_measured: activation at 1 µM (%)

INSERT INTO results (compound, unit_abbreviation, result) VALUES
  ('CCOC(CC(=O)O)c1cccc(OCC2CCN(c3cc(OC)ccc3C(=O)N(CC(C)(C)C)c3cccc(C)n3)CC2)c1 (stereo not drawn) [Example 270]', '%', 95),
  ('COc1ccc(C(=O)N(CC(C)(C)OC)c2cc(C)ccn2)c(N2CCC(COc3cc(C(CC(=O)O)C4CC4)ccn3)CC2)c1 (stereo not drawn) [Example 164]', '%', 88),
  ('COc1ccc(C(=O)N(CC(C)(C)F)c2cccc(C)n2)c(N2CCC(COc3cc(C(CC(=O)O)C4CC4)ccn3)CC2)c1 (stereo not drawn) [Example 152]', '%', 100);

* * *

This section presents compounds with their documented Activity (human GPR40 agonist activity) values.
system_tested: human GPR40 (Homo sapiens, UniProt O14842)
Construct: expressed in transfected cells
Sequence (O14842 whole entry): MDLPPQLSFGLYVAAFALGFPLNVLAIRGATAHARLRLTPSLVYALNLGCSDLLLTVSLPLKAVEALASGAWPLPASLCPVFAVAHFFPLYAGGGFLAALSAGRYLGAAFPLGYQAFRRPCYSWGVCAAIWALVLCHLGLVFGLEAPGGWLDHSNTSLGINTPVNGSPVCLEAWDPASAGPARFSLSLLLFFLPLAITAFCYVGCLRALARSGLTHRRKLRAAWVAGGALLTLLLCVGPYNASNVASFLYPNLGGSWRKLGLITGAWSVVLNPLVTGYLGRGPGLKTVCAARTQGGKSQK
test_details: Evaluation of human GPR40 agonist activity with increase in intracellular Ca2+ concentration as an index (FLIPR)
Assay type: cell-based
condition_summary: test compound 1 μM; CHO(dhfr−) cells stably expressing human GPR40; 100% = 10 μM compound of Example 153, 0% = DMSO
attribute_measured: Activity (human GPR40 agonist activity) (%)

INSERT INTO results (compound, system_tested, attribute_measured, result) VALUES
  ('COc1ccc(C(=O)N(c2ccccn2)C2CCN(CC(F)(F)F)CC2)c(N2CCC(COc3cc(C(CC(=O)O)C4CC4)ccn3)CC2)c1 (centres unmarked) [Example 191]', 'human GPR40 (Homo sapiens, UniProt O14842)', 'Activity (human GPR40 agonist activity)', 86),
  ('COc1ccc(C(=O)N(CC(C)(C)C)c2cccc(C)n2)c(N2CCC(COc3cc(C(CC(=O)O)C4CC4)ccn3)CC2)c1 (centres unmarked) [Example 110]', 'human GPR40 (Homo sapiens, UniProt O14842)', 'Activity (human GPR40 agonist activity)', 104),
  ('COc1ccc(C(=O)N(c2ccccn2)C2CCN(Cc3ccccc3)CC2)c(N2CCC(COc3cc(C(CC(=O)O)C4CC4)ccn3)CC2)c1 (centres unmarked) [Example 190]', 'human GPR40 (Homo sapiens, UniProt O14842)', 'Activity (human GPR40 agonist activity)', 66),
  ('COc1ccc(C(=O)N(CC2CC2)c2ccccn2)c(N2CCC(COc3cc(C(CC(=O)O)C4CC4)ccn3)CC2)c1 (single isomer, unassigned) [Example 142]', 'human GPR40 (Homo sapiens, UniProt O14842)', 'Activity (human GPR40 agonist activity)', 97),
  ('COc1ccc(C(=O)N(CC(C)(C)C)c2cccc(C)n2)c(N2CCC(COc3cc([C@@H](CC(=O)O)C4CC4)ccn3)CC2)c1 [Example 245]', 'human GPR40 (Homo sapiens, UniProt O14842)', 'Activity (human GPR40 agonist activity)', 102);

* * *

system_tested: human GPR40 (Homo sapiens, UniProt O14842)
Construct: expressed in transfected cells
test_details: Evaluation of human GPR40 agonist activity with increase in intracellular Ca2+ concentration as an index (FLIPR)
Format: cell-based
condition_summary: test compound 1 μM; CHO(dhfr−) cells stably expressing human GPR40; 100% = 10 μM compound of Example 153, 0% = DMSO
This section presents molecules with their documented activation at 1 µM values.
attribute_measured: activation at 1 µM (%)

INSERT INTO results (molecule, result) VALUES
  ('COc1ccc(C(=O)N2CCOc3ccccc32)c(N2CCC(COc3cc(C(CC(=O)O)C4CC4)ccn3)CC2)c1 (stereo not drawn) [Example 199]', 93),
  ('Cc1ccc(C(=O)N(CC(C)(C)C)c2cccc(C)n2)c(N2CCC(COc3cc(C(CC(=O)O)C4CC4)ccn3)CC2)c1 (stereo not drawn) [Example 258]', 94),
  ('COc1ccc(C(=O)N2CCc3ccccc32)c(N2CCC(COc3cccc(C(CC(=O)O)C4CC4)c3)CC2)c1 (stereo not drawn) [Example 4]', 97),
  ('COc1ccc(C(=O)N(CC2CC2)c2ccccn2)c(N2CCC(COc3cc(C(CC(=O)O)C4CC4)ccn3)CC2)c1 (single isomer, unassigned) [Example 141]', 81),
  ('COc1ccc(C(=O)N(CC(C)C)c2ccccn2)c(N2CCC(COc3cccc(C(CC(=O)O)C4CC4)c3)CC2)c1 (stereo not drawn) [Example 62]', 101),
  ('COc1ccc(C(=O)N(CC(C)(C)C)c2cc(C)cnn2)c(N2CCC(COc3cc(C(CC(=O)O)C4CC4)ccn3)CC2)c1 (stereo not drawn) [Example 232]', 85);

* * *

Test system: N-STZ-1.5 rats
test_details: Oral glucose tolerance test using N-STZ-1.5 rats (glucose-lowering effects and insulinotropic action)
Format: in vivo, rat
condition_summary: 3 mg/kg body weight oral, 1 hr before glucose loading 1.5 g/kg; glucose AUC (0-60 min) vs control group; male N-STZ-1.5 rats, n=6
attribute_measured: blood glucose decrease rate (%)

INSERT INTO results (molecule, result) VALUES
  ('COc1ccc(C(=O)N(CC(C)(C)F)c2cc(C)ccn2)c(N2CCC(COc3cc(C(CC(=O)O)C4CC4)ccn3)CC2)c1 (centres unmarked) [Example 185]', '30.8^$ %'),
  ('COc1ccc(C(=O)N(CC(C)(C)C)c2nc(C)cc(C)n2)c(N2CCC(COc3cc([C@@H](CC(=O)O)C4CC4)ccn3)CC2)c1 [Example 246]', '42.7^$ %'),
  ('COc1ccc(C(=O)N(CC(C)(C)C)c2cccc(C)n2)c(N2CCC(COc3cc([C@@H](CC(=O)O)C4CC4)ccn3)CC2)c1 [Example 245]', '44.5^$ %'),
  ('COc1ccc(C(=O)N(CC(C)(C)C)c2ncccn2)c(N2CCC(COc3cc(C(CC(=O)O)C4CC4)ccn3)CC2)c1 (centres unmarked) [Example 184]', '27.9^$ %'),
  ('COc1ccc(C(=O)N(CC(C)(C)C)c2ccccn2)c(N2CCC(COc3cc([C@@H](CC(=O)O)C4CC4)ccn3)CC2)c1 [Example 247]', '41.5^$ %');

* * *

system_tested: human GPR40 (Homo sapiens)
Construct: expressed in transfected cells
test_details: Evaluation of human GPR40 agonist activity with increase in intracellular Ca2+ concentration as an index (FLIPR)
Type: cell-based
condition_summary: test compound 1 μM; CHO(dhfr−) cells stably expressing human GPR40; 100% = 10 μM compound of Example 153, 0% = DMSO
This section presents compounds with their documented activation at 1 µM values.
attribute_measured: activation at 1 µM (%)

INSERT INTO results (compound, system_tested, result) VALUES
  ('COc1ccc(C(=O)N(C)C2CCN(CC(F)(F)F)CC2)c(N2CCC(COc3cc(C(CC(=O)O)C4CC4)ccn3)CC2)c1 (stereo not drawn) [Example 194]', 'human GPR40 (Homo sapiens)', 77),
  ('COc1ccc(C(=O)N(CC(F)(F)F)c2cccc(C)n2)c(N2CCC(COc3cc(C(CC(=O)O)C4CC4)ccn3)CC2)c1 (stereo not drawn) [Example 143]', 'human GPR40 (Homo sapiens)', 102),
  ('COc1ccc(C(=O)N(CC(F)(F)F)c2ccccn2)c(N2CCC(COc3cc(C(CC(=O)O)C4CC4)ccn3)CC2)c1 (stereo not drawn) [Example 116]', 'human GPR40 (Homo sapiens)', 101),
  ('COc1ccc(C(=O)N(CC(C)(C)C)c2cccc(C)n2)c(N2CCC(COc3cccc(C(CC(=O)O)C4CC4)c3F)CC2)c1 (stereo not drawn) [Example 275]', 'human GPR40 (Homo sapiens)', 99),
  ('COc1ccc(C(=O)N(CC(C)(C)C)c2ccccn2)c(N2CCC(COc3cccc(C(CC(=O)O)C4CC4)c3)C(F)(F)C2)c1 (stereo not drawn) [Example 281]', 'human GPR40 (Homo sapiens)', 92),
  ('CCC(C)(C)N(C(=O)c1ccc(OC)cc1N1CCC(COc2cc(C(CC(=O)O)C3CC3)ccn2)CC1)c1ccccn1 (stereo not drawn) [Example 145]', 'human GPR40 (Homo sapiens)', 96);

* * *

system_tested: human GPR40 (Homo sapiens, UniProt O14842)
Construct: expressed in transfected cells
test_details: Evaluation of human GPR40 agonist activity with increase in intracellular Ca2+ concentration as an index (FLIPR)
Format: cell-based
condition_summary: test compound 1 μM; CHO(dhfr−) cells stably expressing human GPR40; 100% = 10 μM compound of Example 153, 0% = DMSO
attribute_measured: activation at 1 µM (%)

INSERT INTO assay_data (compound, result) VALUES
  ('COc1ccc(C(=O)N(CC2(F)CC2)c2ccccn2)c(N2CCC(COc3cc(C(CC(=O)O)C4CC4)ccn3)CC2)c1 (stereo not shown)', 79),
  ('COc1ccc(C(=O)N(CC(C)(C)OC(C)C)c2ccccn2)c(N2CCC(COc3cc(C(CC(=O)O)C4CC4)ccn3)CC2)c1 (stereo not shown)', 97),
  ('COc1ccc(C(=O)N(CC(C)(C)C)c2cnccn2)c(N2CCC(COc3cc(C(CC(=O)O)C4CC4)ccn3)CC2)c1 (stereo not shown)', 103),
  ('COc1ccc(C(=O)N(CC2CCC2)c2ccccn2)c(N2CCC(COc3cc(C(CC(=O)O)C4CC4)ccn3)CC2)c1 (stereo not shown)', 103),
  ('COc1ccc(C(=O)N2CC(F)(F)OC(F)(F)C2)c(N2CCC(COc3cc(C(CC(=O)O)C4CC4)ccn3)CC2)c1 (stereo not shown)', 102),
  ('COc1ccc(C(=O)N(c2ccccn2)C2CC(F)(F)C2)c(N2CCC(COc3cc(C(CC(=O)O)C4CC4)ccn3)CC2)c1 (stereo not shown)', 97),
  ('COc1ccc(C(=O)N(CC(F)(F)F)c2cc(C)ccn2)c(N2CCC(COc3cc(C(CC(=O)O)OC)ccn3)CC2)c1 (stereo not shown)', 98);
